# Target System: IGF-1R (Homo sapiens)
# Sequence (P08069 31-1367): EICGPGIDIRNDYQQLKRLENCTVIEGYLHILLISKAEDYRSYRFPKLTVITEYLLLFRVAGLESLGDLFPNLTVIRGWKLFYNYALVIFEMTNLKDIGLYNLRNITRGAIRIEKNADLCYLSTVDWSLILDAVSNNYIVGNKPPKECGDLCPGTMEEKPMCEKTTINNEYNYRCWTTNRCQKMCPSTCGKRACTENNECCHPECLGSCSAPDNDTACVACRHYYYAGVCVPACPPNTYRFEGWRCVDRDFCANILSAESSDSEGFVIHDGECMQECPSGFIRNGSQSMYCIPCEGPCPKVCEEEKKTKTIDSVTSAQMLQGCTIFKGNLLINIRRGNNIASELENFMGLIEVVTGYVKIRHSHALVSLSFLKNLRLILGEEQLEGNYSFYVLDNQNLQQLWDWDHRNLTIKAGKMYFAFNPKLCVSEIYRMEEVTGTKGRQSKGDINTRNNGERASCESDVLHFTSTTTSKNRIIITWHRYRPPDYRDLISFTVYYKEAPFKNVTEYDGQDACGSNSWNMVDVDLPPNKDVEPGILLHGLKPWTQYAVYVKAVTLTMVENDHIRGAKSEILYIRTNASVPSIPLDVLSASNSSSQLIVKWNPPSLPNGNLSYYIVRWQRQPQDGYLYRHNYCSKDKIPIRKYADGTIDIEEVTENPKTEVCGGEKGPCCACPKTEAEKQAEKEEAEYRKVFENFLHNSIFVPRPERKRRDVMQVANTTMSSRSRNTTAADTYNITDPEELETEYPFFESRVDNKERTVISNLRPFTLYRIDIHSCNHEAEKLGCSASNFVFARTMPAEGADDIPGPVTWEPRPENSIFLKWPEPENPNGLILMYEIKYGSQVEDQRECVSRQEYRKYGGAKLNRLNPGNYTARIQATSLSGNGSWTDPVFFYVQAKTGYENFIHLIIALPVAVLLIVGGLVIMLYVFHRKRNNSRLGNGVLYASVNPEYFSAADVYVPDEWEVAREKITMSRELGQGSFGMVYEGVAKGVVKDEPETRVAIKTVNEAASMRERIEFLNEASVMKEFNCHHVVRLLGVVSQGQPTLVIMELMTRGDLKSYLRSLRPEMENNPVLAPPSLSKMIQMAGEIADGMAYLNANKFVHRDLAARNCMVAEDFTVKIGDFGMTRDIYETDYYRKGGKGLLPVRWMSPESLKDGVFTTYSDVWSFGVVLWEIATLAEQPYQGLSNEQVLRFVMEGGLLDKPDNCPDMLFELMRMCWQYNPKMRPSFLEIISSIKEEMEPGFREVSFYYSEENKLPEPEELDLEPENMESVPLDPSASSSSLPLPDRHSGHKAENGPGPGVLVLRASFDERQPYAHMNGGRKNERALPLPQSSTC
# Assay Comment: IGFR1 activity assay (ELISA)
# Format: biochemical
# Measurement Context: read-out: IGF-1R, PCT INH (30 μM), ELISA
Observable: inhibition at 30 µM

Consider the reported inhibition at 30 µM for these molecules:
O=C(NCCCN1CCOCC1)c1ccc2[nH]c(-c3ccc[nH]c3=O)c(-c3ccc(F)c(Cl)c3)c2c1 : < 50%
CN(C)CCCNC(=O)c1ccc2[nH]c(-c3ccc[nH]c3=O)c(-c3ccccc3)c2c1 : 80 to 100%
O=C(NCCCN1CCOCC1)c1ccc2[nH]c(-c3ccc[nH]c3=O)c(-c3ccc(F)cc3)c2c1 : 80 to 100%
CCOC(=O)N1CCN(C(=O)c2ccc3[nH]c(-c4ccc[nH]c4=O)c(-c4ccccc4)c3c2)CC1 : 80 to 100%
Cc1cc(C)cc(-c2c(-c3ccc[nH]c3=O)[nH]c3ccc(C(=O)NCCCN4CCOCC4)cc23)c1 : 80 to 100%

Inquiry: Bench note: what inhibition at 30 µM did COc1ccc(C(C)C)cc1-c1c(-c2ccc[nH]c2=O)[nH]c2ccc(C(=O)NCCCN3CCOCC3)cc12 show?
Reply text: 80 to 100%

Inquiry: # lookup: inhibition at 30 µM of Cc1cccc(-c2c(-c3ccc[nH]c3=O)[nH]c3ccc(C(=O)NCCCN4CCOCC4)cc23)c1
Reply text: 80 to 100%

Inquiry: Please give the measured inhibition at 30 µM for this molecule: O=C(NCCCN1CCOCC1)c1ccc2[nH]c(-c3ccc[nH]c3=O)c(-c3ccc(F)cc3F)c2c1
Reply text: 80 to 100%

Inquiry: Requested field: inhibition at 30 µM. Item: O=C(NCCCN1CCOCC1)c1ccc2[nH]c(-c3ccc[nH]c3=O)c(-c3cccc(F)c3)c2c1
Reply text: 80 to 100%

Inquiry: What inhibition at 30 µM value was documented for this molecule, CN(CCc1ccccc1)C(=O)c1ccc2[nH]c(-c3ccc[nH]c3=O)c(-c3ccccc3)c2c1 ?
Reply text: 80 to 100%

Inquiry: I have this molecule here, O=C(NCCCN1CCOCC1)c1ccc2[nH]c(-c3ccc[nH]c3=O)cc2c1 , and I need its recorded inhibition at 30 µM.
Reply text: 80 to 100%

Inquiry: Which measured inhibition at 30 µM value corresponds to O=C(NCc1ccccc1)c1ccc2[nH]c(-c3ccc[nH]c3=O)c(-c3ccc(-c4ccccc4)cc3)c2c1 ?
Reply text: < 50%

Inquiry: Requested read-out: inhibition at 30 µM. Entry: O=c1[nH]cccc1-c1[nH]c2ccccc2c1C1CCN(Cc2cccc3ccccc23)CC1
Reply text: < 50%

Inquiry: Tell me the measured inhibition at 30 µM of COCC(C)NC(=O)c1ccc2[nH]c(-c3ccc[nH]c3=O)c(-c3ccccc3)c2c1 (centres unmarked) , please.
Reply text: 80 to 100%

Inquiry: # input molecule: CN(C)CCCNCc1ccc2[nH]c(-c3ccc[nH]c3=O)c(-c3ccc(-c4ccccc4)cc3)c2c1 ; wanted: its inhibition at 30 µM
Reply text: < 50%

Inquiry: Quick check: inhibition at 30 µM of COc1ccc(-c2c(-c3ccc[nH]c3=O)[nH]c3ccc(C(=O)NCCCN4CCOCC4)cc23)cc1OC ?
Reply text: 80 to 100%

Inquiry: Record request: inhibition at 30 µM value, item O=C(NCCOc1ccccc1)c1ccc2[nH]c(-c3ccc[nH]c3=O)c(-c3ccc(-c4ccccc4)cc3)c2c1
Reply text: < 50%

Attribution: patent US8410144B2
